Recorded IC50 values for a group of compounds are listed next.
Target: full length mouse TREX1 (Mus musculus, UniProt Q91XB0)
Construct: N-terminally His-Tev tagged full length mouse TREX1; made in house; host or cells: E. coli
Sequence (Q91XB0 1-314): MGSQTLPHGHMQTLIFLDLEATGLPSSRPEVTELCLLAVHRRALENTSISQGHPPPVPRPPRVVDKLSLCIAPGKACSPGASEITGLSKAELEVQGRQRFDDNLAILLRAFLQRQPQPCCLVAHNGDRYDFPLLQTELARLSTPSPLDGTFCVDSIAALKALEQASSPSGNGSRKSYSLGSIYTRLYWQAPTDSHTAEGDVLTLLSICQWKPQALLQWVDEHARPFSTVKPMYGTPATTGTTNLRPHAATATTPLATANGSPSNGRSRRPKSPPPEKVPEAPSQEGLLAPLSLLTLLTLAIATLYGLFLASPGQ
Test: mTREX1 Biochemical Assay (fluorescence, dsDNA substrate degradation)
Details: biochemical, read-out: mTREX1 IC50

Previously resolved entries follow.
Cc1ncc(C(c2cc(F)ccc2C#N)C(C)c2nc(C(=O)Nc3cnoc3)c(O)c(=O)n2C)nc1C (single isomer, unassigned) [Example 124 D1E1] ... > 10 nM
CC(c1nc(C(=O)Nc2cnoc2)c(O)c(=O)n1C)C(c1cnn(CCN2CCN(C(=O)OC(C)(C)C)CC2)c1)c1ccccc1C#N (single isomer, unassigned) [Example 21 D2E2] ... > 10 nM
Cc1cc(C(c2cc(F)ccc2C#N)C(C)c2nc(C(=O)Nc3cnoc3)c(O)c(=O)n2C)nn1C (single isomer, unassigned) [Example 112 D2E1] ... > 10 nM
Cc1cnc(C)c(C(c2ccccc2Cl)C(C)c2nc(C(=O)Nc3cnoc3)c(O)c(=O)n2C)n1 (single isomer, unassigned) [Example 120 D1E1] ... 1 to 10 nM
CC(c1nc(C(=O)Nc2cnoc2)c(O)c(=O)n1C)C(c1cnn(C)c1)c1ccc(O)cc1C#N (single isomer, unassigned) [Example 80 D1E1] ... 1 to 10 nM

Asked: API: value(readout= IC50, system= full length mouse TREX1 (Mus musculus, UniProt Q91XB0), query= Cc1cnc(C(c2ccccc2Cl)C(C)c2nc(C(=O)Nc3cnoc3)c(O)c(=O)n2C)cn1 (single isomer, unassigned) [Example 116 D2E2] )
Given back: > 10 nM

* * *

Listed here: items and their measured IC50.
Target: hTREX1 (Homo sapiens)
Sequence (Q9NSU2 1-314): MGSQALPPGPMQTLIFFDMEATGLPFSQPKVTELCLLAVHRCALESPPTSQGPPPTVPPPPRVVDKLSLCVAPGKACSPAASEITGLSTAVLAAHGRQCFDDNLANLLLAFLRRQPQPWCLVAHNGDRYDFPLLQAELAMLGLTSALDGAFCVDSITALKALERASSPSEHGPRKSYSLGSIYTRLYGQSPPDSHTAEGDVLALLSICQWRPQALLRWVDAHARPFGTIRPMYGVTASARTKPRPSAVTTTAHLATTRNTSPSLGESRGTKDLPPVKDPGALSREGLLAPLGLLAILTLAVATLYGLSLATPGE
Experiment: hTREX1 HCT116 Cell Assay (HCT116 dual cells, Lucia luciferase reporter of Type I interferon induction)
Details: TREX1i 4 h before pBR322/BstNI transfection, read after 48 h

Field: example entries. Status: answers known.
Cc1cnc(C(c2ccccc2Cl)C(C)c2nc(C(=O)Nc3cnoc3)c(O)c(=O)n2C)cn1 (single isomer, unassigned) [Example 116 D2E1] ... > 0.1 µM
Cc1cnc(C)c(C(c2cc(F)ccc2Cl)C(C)c2nc(C(=O)Nc3cnoc3)c(O)c(=O)n2C)n1 (single isomer, unassigned) [Example 121 D2E1] ... > 0.1 µM
CC(c1nc(C(=O)Nc2cnoc2)c(O)c(=O)n1C)C(c1ccccc1C#N)c1ccnn1C (single isomer, unassigned) [Example 1 D1E1] ... 0.01 to 0.1 µM

Asked: Given the molecule CC(c1nc(C(=O)Nc2cnoc2)c(O)c(=O)n1C)C(c1cnn(CCO)c1)c1ccccc1C#N (single isomer, unassigned) [Example 35 D1E1] , what is its reported IC50?
Given back: > 0.1 µM

Asked: Recorded IC50 for CCn1cc(C(c2ccccc2Cl)C(C)c2nc(C(=O)Nc3cnoc3)c(O)c(=O)n2C)cn1 (single isomer, unassigned) [Example 85 D2E1] , please?
Given back: > 0.1 µM

Hello, the source for this data is patent US20240246946A1, in case you need it.
